TEST_DETAILS: NCI Yeast Anticancer Drug Screen. Data for the bub3 strain (AID 167)
SETTINGS: S. cerevisiae bub3 mutant strain, at 5.0 µM (retest, dose inferred, filed as 0.5), active compounds read high
Description: Growth inhibition of yeast strains with defined genetic alterations is measured as a screen for potential anti-cancer activity. Selected strains with alterations in DNA damage repair or cell cycle control were exposed to compounds and growth inhibition was measured relative to vehicle treated controls. The strain used in this assay is bub3
Compounds without any hit were thinned out: in the full panel of roughly 79,000, 15% have a hit.

COMPOUND	growth inhibition (%)
CC1(C)OC2OC3C(CN(CCCl)Cc4ccccc4)OC(c4ccccc4)OC3C2O1 (stereo not given)	0
c1ccc(NC2=NCCN2)nc1	-8
CN(C)c1ccc(N=Cc2c([O-])ccc3ccccc23)cc1.[C-]#[O+].[C-]#[O+].[Ir]	2
C[C@]12CC[C@H](O)CC1=CC[C@@H]1[C@@H]2CC[C@]2(C)C(=O)CC[C@@H]12	20
CC1=CC2OC3CC4OC(=O)/C=C/C=C/C(C(C)O)OCC(O)C(C)CC(=O)OCC2(CC1O)C4(C)C31CO1 (stereo not given)	25
